Provenance of the data: PubChem BioAssay (NCI)

- Test system: MCF7 breast
- Experimental protocol: NCI-60 one-dose screen, 48 h (100 = growth as untreated, 0 = no growth, -100 = all killed)
- Experimental context: 10 µM
Compounds without any hit were thinned out: in the full panel of roughly 83,000, 20% have a hit. Activity calls are given as the source filed them. The calls were made as follows: active = growth percent below 10; inactive = the rest.
Metric: growth

[
  {
    "Compound": "Cc1ccc(CSc2nc(Cl)c(C#N)c(-c3ccc(F)cc3)n2)cc1",
    "Recorded value": "72.9% (inactive)"
  },
  {
    "Compound": "N#Cc1ccc(-c2nn(-c3ccc(C(=O)O)cc3)cc2CNc2ccc(Oc3ccccc3)cc2)cc1",
    "Recorded value": "59.8% (inactive)"
  },
  {
    "Compound": "Cc1cc(C)nc(NS(=O)(=O)c2ccc(N/C(N)=N/c3nccc(-c4ccccc4)n3)cc2)n1",
    "Recorded value": "37% (inactive)"
  },
  {
    "Compound": "CN1CCN(c2ccc(Nc3nc(NCCCNC(=O)c4ccccc4)c4sccc4n3)cc2)CC1",
    "Recorded value": "38.4% (inactive)"
  },
  {
    "Compound": "CC(=O)c1ccc(Nc2nc(SCCC(C)C)nc(-c3ccc(F)cc3)c2C#N)cc1",
    "Recorded value": "59.6% (inactive)"
  },
  {
    "Compound": "COc1ccc(-c2cc(C(=O)N=Nc3c(O)[nH]c4ccccc34)c3ccccc3n2)cc1",
    "Recorded value": "-49.6% (active)"
  },
  {
    "Compound": "O=c1[nH]c2ccccc2cc1CSc1ccc(Nc2nccc(-c3ccc4ccccc4c3)n2)cc1",
    "Recorded value": "19% (inactive)"
  },
  {
    "Compound": "O=c1[nH]c2ccc(Cl)cc2cc1CSc1ccc(Nc2nccc(-c3ccc(Cl)cc3)n2)cc1",
    "Recorded value": "5.48% (active)"
  },
  {
    "Compound": "Nc1cc(-c2cccc(C(=O)NCc3ccc4c(c3)OCO4)c2)ccn1",
    "Recorded value": "86.5% (inactive)"
  },
  {
    "Compound": "O=C(c1ccc(Cl)cc1)C1[C@H](c2ccccc2Br)[C@@H](c2ccccc2)NC12C(=O)Nc1ccccc12 (some centres not stated)",
    "Recorded value": "-4.27% (active)"
  },
  {
    "Compound": "COc1ccc(/C=C/C(=O)c2ccc(NC(=O)CN3C(=O)NC(C)(c4ccccc4)C3=O)cc2)cc1 (configuration not stated)",
    "Recorded value": "4.86% (active)"
  },
  {
    "Compound": "CN1C(=O)N(C)C2SC(N/N=C/c3ccccc3F)=NC21 (configuration not stated)",
    "Recorded value": "32% (inactive)"
  },
  {
    "Compound": "COc1cccc(/C=C2\\N=C(C)N(CCc3ccc(S(N)(=O)=O)cc3)C2=O)c1",
    "Recorded value": "95.2% (inactive)"
  },
  {
    "Compound": "CN(C)c1ccc(/C=C/c2nc3ccccc3c(=O)n2CC(=O)Nc2ccccc2)cc1",
    "Recorded value": "26% (inactive)"
  },
  {
    "Compound": "CCOC(=O)c1c(CSc2ccccc2)n(C)c2cc(CN(C)C)c(O)c(CN(C)C)c12",
    "Recorded value": "3.06% (active)"
  },
  {
    "Compound": "O=C(O)CCCCCCCCCCN1C(=O)/C(=C/c2cnc(-c3ccccc3)s2)SC1=S",
    "Recorded value": "28.8% (inactive)"
  },
  {
    "Compound": "O=C(Cn1nc(-c2ccccc2)ccc1=O)NNC(=S)NC1CCCCC1",
    "Recorded value": "99.4% (inactive)"
  },
  {
    "Compound": "CC1=N/C(=C\\c2ccc(N(C)C)cc2)C(=O)N1CCc1ccc(S(N)(=O)=O)cc1",
    "Recorded value": "91.8% (inactive)"
  },
  {
    "Compound": "O=C(CNc1nc(-c2ccccc2)cs1)Nc1ccc([N+](=O)[O-])cc1Cl",
    "Recorded value": "9.27% (active)"
  },
  {
    "Compound": "CN(C)c1ccc(/C=C/C(=O)c2ccc(NC(=O)CN3C(=O)NC(C)(c4ccccc4)C3=O)cc2)cc1 (configuration not stated)",
    "Recorded value": "11.8% (inactive)"
  },
  {
    "Compound": "CN(C(=O)c1ccc(C(C)(C)C)cc1)c1sc2c(c1C#N)CCC(=O)C2",
    "Recorded value": "25.7% (inactive)"
  },
  {
    "Compound": "O=C(CSc1nnc(-c2c[nH]c3ccccc23)n1-c1ccccc1)Nc1ccc(C(=O)/C=C/c2ccccc2Cl)cc1",
    "Recorded value": "40.4% (inactive)"
  },
  {
    "Compound": "COC(=O)c1c(C(=O)OC)c2n(c1C)[C@@H]([C@@H](C)[C@H]1CC[C@H]3[C@@H]4CCC5=CC(=O)CC[C@]5(C)[C@H]4CC[C@]13C)SC2",
    "Recorded value": "4.29% (active)"
  },
  {
    "Compound": "COc1ccc2cc([C@H](C)C(=O)NCc3ccccc3)ccc2c1",
    "Recorded value": "22.5% (inactive)"
  },
  {
    "Compound": "Cc1ccc2nc(-c3ccc(-c4nnc(SCC(=O)Nc5ccc(Cl)cc5)o4)cc3)[nH]c2c1",
    "Recorded value": "-16.1% (active)"
  },
  {
    "Compound": "COc1ccc(NC(=O)Cn2c(/C=C/c3ccc(N(C)C)cc3)nc3ccccc3c2=O)cc1",
    "Recorded value": "21.5% (inactive)"
  },
  {
    "Compound": "CN1C(=O)/C(=C/c2ccc3ncsc3c2)NC1=NC12CC3CC(CC(O)(C3)C1)C2",
    "Recorded value": "-20.1% (active)"
  },
  {
    "Compound": "O=C(Nc1ccccc1)Nc1nc2ccccc2s1",
    "Recorded value": "21.4% (inactive)"
  },
  {
    "Compound": "COC(=O)C[C@](O)(CCCC(C)(C)O)C(=O)O[C@H]1C(OC)=C[C@@]23CCC(=O)N2CCc2cc4c(cc2[C@@H]13)OCO4",
    "Recorded value": "87.3% (inactive)"
  },
  {
    "Compound": "COc1cc2c3c(n(CCCn4ccnc4)c(=O)c2cc1OC)-c1nc2c(cc1C3=O)OCO2",
    "Recorded value": "7.42% (active)"
  },
  {
    "Compound": "COc1cc(C2CC(c3ccc(C)cc3)=Nc3c(N)nc(N)nc3N2)ccc1Oc1nc(Nc2ccc(F)cc2)nc(N(C)C)n1 (configuration not stated)",
    "Recorded value": "5.19% (active)"
  },
  {
    "Compound": "O=C(CSc1nnc(-c2ccc3nc(-c4ccc(Cl)cc4)[nH]c3c2)o1)Nc1ccc(Br)cc1",
    "Recorded value": "-25% (active)"
  }
]
